targetDesc: T1, biotin-Ly6E-rat IgG2b Fc (human | rat, biotin)
T1 chain: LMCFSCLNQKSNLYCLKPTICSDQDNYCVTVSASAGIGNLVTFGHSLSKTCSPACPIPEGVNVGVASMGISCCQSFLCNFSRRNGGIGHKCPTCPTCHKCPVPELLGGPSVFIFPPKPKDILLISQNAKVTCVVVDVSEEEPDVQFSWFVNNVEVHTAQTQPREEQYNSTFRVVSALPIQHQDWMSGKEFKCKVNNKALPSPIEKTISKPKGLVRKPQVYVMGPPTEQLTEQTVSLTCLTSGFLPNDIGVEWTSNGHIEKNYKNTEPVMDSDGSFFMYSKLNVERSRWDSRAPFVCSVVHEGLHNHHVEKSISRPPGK
experimentalProtocol: SPR; […]; Biacore S200, […] (PBS with 0.05% Tween 20, pH 7.4); […]
conditionDescription: both partners purified
pKd: −log10 of the molar value.

binder: GCQIYQSQWSYLCKQDSDCLAGCVCGPNGFCG (designed binder) [L-EET-8]
pKd: < 4.70

binder: GCNMYSGPWRYFCKQDSDCLAGCVCGPNGFCG (designed binder) [L-EET-5]
pKd: < 4.70

binder: GCAIYHMGWMFQCKQDSDCLAGCVCGPNGFCG (designed binder) [L-EET-7]
pKd: 7.66
